Reference for the values: PubChem BioAssay (NCI)

- System: SK-OV-3 ovarian
- protocol_details: NCI-60 one-dose screen, 48 h (100 = growth as untreated, 0 = no growth, -100 = all killed)
- assay_setup: 10 µM unless noted
This is part of a sample that, as a whole, favours compounds with a hit. Of some 83,000 tested, about 20% had one in any assay.
Exercise: for every item that follows, state its recorded growth.
Use % as the unit, but write only the number.

Qu. Consider the molecule shown here: COc1ccc2c(c1)OC(N)=C(C#N)C2c1ccc(F)cc1 (stereo not drawn) What is its recorded growth?
Ans. 16.6

Qu. Consider the molecule shown here: CSc1ccc(C(=O)C[n+]2cccc(C)c2)cc1 What is its recorded growth?
Ans. 102

Qu. Consider the molecule shown here: COc1ccc(-c2nn(-c3ccc(NC(=O)c4cc(C(F)(F)F)cc(C(F)(F)F)c4)cc3)cc2-c2ccncc2)cc1Cl What is its recorded growth?
Ans. 78.4

Qu. Consider the molecule shown here: O=C(O)c1ccc(-n2cc(/C=N/Nc3ccc(F)cc3)c(-c3cccc(C(F)(F)F)c3)n2)cc1 What is its recorded growth?
Ans. 94.6

Qu. Consider the molecule shown here: O=C(Nc1ccc(-n2cc(-c3ccncc3)c(-c3ccc(O)c(Cl)c3)n2)cc1)Nc1cccc(Cl)c1Cl What is its recorded growth?
Ans. 81.7

Qu. Consider the molecule shown here: O=C(Nc1ccc(-n2cc(-c3ccncc3)c(-c3ccc(O)c(Cl)c3)n2)cc1)c1ccc(Cl)c(Cl)c1 What is its recorded growth?
Ans. 66.6

Qu. Consider the molecule shown here: C=C1C(=O)O[C@H]2[C@H]1CC/C(CNC(=O)/C1=C/CC[C@@]3(C)O[C@H]3[C@H]3OC(=O)C(=C)[C@@H]3CC1)=C\CC[C@@]1(C)O[C@@H]21 What is its recorded growth?
Ans. 89.8

Qu. Consider the molecule shown here: COc1cc(/C=C/C(=O)c2c(C)[n+]([O-])c3ccccc3[n+]2[O-])ccc1O What is its recorded growth?
Ans. 97.8
